Multiple publications report IC50 for UniProtKB Q9UGL1; what follows is a combined list.

**Q:** Please report IC50 with UniProtKB Q9UGL1 for item `Oc1nc(Oc2cnn(CCN3CCOCC3)c2)nc2cnccc12` .
**A:** ≤ 100 nM

**Q:** Please report IC50 with UniProtKB Q9UGL1 for item `CN1CCN(c2ccc(CNc3ccc4nccn4c3C(=O)O)cc2)CC1` .
**A:** ≤ 500 nM

**Q:** Please report IC50 with UniProtKB Q9UGL1 for item `CC(C)CCn1cc(Oc2nc(O)c3ccncc3n2)cn1` .
**A:** ≤ 100 nM

**Q:** Please report IC50 with UniProtKB Q9UGL1 for item `C[C@H](c1ccccc1)N1CCC[C@H](CNCc2cc(C(=O)O)ccn2)C1=O` .
**A:** < 250 nM

**Q:** Please report IC50 with UniProtKB Q9UGL1 for item `CCN(CCn1cnc(-c2cc(C(=O)O)ccn2)c1)Cc1ccc(F)cc1` .
**A:** ≤ 100 nM
